Endpoint: IC50. System: RAF proto-oncogene serine/threonine-protein kinase (Homo sapiens). Items follow.
value-kind: IC50 (µM)

[
  {
    "cpd-smiles": "O=C(Nc1ccc(Oc2ncnc3sccc23)cc1)Nc1cccc(Br)c1",
    "value-kind": "IC50",
    "readout-qualifier": ">",
    "measured-number": 10
  },
  {
    "cpd-smiles": "O=C(Nc1ccc(Oc2ncnc3ccccc23)cc1)Nc1cccc(Br)c1",
    "value-kind": "IC50",
    "readout-qualifier": "=",
    "measured-number": 6.22
  },
  {
    "cpd-smiles": "O=C(Nc1ccc(Nc2ncnc3ccccc23)cc1)Nc1cccc(Br)c1",
    "value-kind": "IC50",
    "readout-qualifier": ">",
    "measured-number": 10
  },
  {
    "cpd-smiles": "O=C(Nc1ccc(Oc2ncnc3sc4c(c23)CCCC4)cc1)Nc1cccc(Br)c1",
    "value-kind": "IC50",
    "readout-qualifier": "=",
    "measured-number": 5.84
  }
]

---

Measured pIC50 accompanies every entry in the list below.
# test-system: Hepatocyte growth factor receptor (Homo sapiens)
# Sequence (P08581 whole entry): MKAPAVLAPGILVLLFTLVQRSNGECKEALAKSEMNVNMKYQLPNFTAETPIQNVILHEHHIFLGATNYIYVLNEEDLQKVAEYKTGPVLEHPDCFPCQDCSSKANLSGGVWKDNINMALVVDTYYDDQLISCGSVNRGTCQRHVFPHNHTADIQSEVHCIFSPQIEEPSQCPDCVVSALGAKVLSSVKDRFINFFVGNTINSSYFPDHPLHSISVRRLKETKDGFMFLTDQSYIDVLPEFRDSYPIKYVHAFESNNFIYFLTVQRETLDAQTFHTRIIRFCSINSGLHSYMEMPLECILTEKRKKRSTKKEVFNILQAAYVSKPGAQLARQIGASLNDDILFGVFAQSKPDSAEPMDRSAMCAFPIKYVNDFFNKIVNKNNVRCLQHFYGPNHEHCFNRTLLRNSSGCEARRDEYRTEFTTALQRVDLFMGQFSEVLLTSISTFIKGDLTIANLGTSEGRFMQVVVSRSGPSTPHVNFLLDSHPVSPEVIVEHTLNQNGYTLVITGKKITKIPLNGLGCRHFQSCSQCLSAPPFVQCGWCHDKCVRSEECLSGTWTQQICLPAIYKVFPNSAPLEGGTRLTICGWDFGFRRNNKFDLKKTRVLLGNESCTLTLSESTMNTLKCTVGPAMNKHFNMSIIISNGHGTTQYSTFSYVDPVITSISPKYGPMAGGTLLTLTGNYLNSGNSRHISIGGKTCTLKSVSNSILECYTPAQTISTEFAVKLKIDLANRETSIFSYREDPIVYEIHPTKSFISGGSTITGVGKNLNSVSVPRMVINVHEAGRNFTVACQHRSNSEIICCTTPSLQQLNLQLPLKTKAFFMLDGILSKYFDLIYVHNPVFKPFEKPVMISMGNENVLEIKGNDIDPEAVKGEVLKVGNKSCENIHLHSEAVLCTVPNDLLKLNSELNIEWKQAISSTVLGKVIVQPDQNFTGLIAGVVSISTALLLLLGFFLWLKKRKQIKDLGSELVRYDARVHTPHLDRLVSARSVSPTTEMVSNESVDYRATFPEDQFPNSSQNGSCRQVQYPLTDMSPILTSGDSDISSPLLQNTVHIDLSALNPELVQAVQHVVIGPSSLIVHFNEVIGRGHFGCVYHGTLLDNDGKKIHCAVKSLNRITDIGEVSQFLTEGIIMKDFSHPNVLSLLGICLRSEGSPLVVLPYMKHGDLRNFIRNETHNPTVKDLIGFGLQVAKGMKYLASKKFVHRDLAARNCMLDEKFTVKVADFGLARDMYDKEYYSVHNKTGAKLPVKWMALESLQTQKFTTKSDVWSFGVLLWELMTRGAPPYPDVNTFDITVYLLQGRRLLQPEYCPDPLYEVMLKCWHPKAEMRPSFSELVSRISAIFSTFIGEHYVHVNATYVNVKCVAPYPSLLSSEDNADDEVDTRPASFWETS
# assay-comment: Inhibition of c-MET (unknown origin) by radiometric protein kinase assay
pIC50: −log10 of the molar value.
value-kind: pIC50

[
  {
    "cpd-smiles": "O=C(Nc1ccc(Oc2ncnc3sc4c(c23)CCCC4)cc1)Nc1cccc(Br)c1",
    "value-kind": "pIC50",
    "result": "< 5.00"
  },
  {
    "cpd-smiles": "O=C(Nc1ccc(Oc2ncnc3sccc23)cc1)Nc1cccc(Br)c1",
    "value-kind": "pIC50",
    "result": "< 5.00"
  },
  {
    "cpd-smiles": "O=C(Nc1ccc(Nc2ncnc3sccc23)cc1)Nc1cccc(Br)c1",
    "value-kind": "pIC50",
    "result": "< 5.00"
  },
  {
    "cpd-smiles": "COc1cc2ncnc(Oc3ccc(NC(=O)Nc4cccc(Br)c4)cc3)c2cc1OC",
    "value-kind": "pIC50",
    "result": 5.64
  }
]

---

# test-system: Vascular endothelial growth factor receptor 3 (Homo sapiens)
# Sequence (P35916 whole entry): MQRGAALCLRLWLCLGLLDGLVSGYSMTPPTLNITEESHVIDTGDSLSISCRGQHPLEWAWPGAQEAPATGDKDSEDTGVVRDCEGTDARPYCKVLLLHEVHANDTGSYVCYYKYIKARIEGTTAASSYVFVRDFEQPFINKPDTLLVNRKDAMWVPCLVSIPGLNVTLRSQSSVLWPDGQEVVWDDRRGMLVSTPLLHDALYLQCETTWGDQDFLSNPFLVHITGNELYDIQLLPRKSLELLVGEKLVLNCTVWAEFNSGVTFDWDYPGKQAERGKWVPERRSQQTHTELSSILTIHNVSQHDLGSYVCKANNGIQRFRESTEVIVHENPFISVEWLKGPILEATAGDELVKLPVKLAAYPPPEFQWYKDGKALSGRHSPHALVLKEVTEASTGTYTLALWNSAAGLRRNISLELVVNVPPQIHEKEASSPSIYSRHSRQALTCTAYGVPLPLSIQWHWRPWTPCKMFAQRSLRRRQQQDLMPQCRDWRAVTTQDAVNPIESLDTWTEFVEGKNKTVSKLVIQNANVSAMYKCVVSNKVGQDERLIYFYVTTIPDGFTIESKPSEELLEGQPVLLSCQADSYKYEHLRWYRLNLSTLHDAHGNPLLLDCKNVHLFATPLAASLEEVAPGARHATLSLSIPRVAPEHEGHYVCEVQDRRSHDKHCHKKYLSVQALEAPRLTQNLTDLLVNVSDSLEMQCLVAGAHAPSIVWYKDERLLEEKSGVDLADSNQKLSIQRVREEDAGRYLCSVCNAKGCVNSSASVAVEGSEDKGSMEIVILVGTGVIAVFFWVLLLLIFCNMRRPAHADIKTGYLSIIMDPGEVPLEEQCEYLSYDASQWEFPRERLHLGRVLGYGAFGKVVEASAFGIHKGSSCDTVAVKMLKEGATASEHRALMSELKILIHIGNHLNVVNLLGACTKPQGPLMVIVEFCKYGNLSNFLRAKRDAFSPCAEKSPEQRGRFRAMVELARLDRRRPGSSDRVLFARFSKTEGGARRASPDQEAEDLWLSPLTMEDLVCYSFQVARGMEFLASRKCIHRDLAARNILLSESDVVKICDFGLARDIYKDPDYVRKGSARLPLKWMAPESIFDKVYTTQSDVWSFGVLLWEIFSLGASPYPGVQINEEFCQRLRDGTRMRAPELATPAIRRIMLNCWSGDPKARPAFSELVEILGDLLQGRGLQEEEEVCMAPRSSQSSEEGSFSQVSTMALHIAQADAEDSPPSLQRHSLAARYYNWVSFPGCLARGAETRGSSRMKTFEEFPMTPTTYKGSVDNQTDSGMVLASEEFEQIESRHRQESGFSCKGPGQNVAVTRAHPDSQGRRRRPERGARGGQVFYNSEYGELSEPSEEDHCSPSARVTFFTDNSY
pIC50: −log10 of the molar value.
Each entry below carries its recorded pIC50.
value-kind: pIC50

[
  {
    "cpd-smiles": "O=C(Nc1ccc(Nc2ncnc3sc4c(c23)CCCC4)cc1)Nc1cccc(Br)c1",
    "value-kind": "pIC50",
    "measured-number": 6.38
  },
  {
    "cpd-smiles": "O=C(Nc1ccc(Nc2ncnc3sccc23)cc1)Nc1cccc(Br)c1",
    "value-kind": "pIC50",
    "measured-number": 5.70
  },
  {
    "cpd-smiles": "O=C(Nc1ccc(Oc2ncnc3sccc23)cc1)Nc1cccc(Br)c1",
    "value-kind": "pIC50",
    "measured-number": 8.22
  }
]

---

# test-system: Mast/stem cell growth factor receptor Kit (Homo sapiens, UniProt P10721)
# Sequence (P10721 whole entry): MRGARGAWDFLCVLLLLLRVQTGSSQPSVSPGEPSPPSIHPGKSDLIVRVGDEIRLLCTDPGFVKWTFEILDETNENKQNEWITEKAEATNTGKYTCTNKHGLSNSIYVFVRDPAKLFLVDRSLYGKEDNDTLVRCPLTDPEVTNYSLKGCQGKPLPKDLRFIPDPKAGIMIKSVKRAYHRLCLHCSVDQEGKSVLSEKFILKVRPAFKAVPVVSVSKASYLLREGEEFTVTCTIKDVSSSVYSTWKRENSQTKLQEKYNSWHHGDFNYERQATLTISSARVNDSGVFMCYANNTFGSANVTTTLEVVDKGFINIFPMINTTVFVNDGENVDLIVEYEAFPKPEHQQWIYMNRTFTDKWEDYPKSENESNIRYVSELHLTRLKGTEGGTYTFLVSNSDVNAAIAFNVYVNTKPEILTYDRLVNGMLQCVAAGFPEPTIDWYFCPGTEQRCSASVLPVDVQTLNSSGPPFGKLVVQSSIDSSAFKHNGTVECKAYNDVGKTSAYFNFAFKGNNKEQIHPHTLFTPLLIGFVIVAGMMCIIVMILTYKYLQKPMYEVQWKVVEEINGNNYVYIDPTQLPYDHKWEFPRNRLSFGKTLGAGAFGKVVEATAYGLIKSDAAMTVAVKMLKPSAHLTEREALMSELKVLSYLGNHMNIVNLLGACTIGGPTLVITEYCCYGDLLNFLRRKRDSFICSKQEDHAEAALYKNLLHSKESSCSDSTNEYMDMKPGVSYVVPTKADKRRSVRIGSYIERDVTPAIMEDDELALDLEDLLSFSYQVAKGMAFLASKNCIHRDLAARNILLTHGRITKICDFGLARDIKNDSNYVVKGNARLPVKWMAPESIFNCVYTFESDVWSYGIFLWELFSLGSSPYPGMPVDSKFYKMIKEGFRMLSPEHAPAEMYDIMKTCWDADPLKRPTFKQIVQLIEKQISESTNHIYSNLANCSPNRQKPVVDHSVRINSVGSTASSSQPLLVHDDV
pIC50: −log10 of the molar value.
This section presents compounds with their documented pIC50 values.

[
  {
    "cpd-smiles": "O=C(Nc1ccc(Nc2ncnc3ccccc23)cc1)Nc1cccc(Br)c1",
    "pIC50": 9.00
  },
  {
    "cpd-smiles": "O=C(Nc1ccc(Nc2ncnc3sccc23)cc1)Nc1cccc(Br)c1",
    "pIC50": 9.00
  },
  {
    "cpd-smiles": "O=C(Nc1ccc(Oc2ncnc3ccccc23)cc1)Nc1cccc(Br)c1",
    "pIC50": 7.85
  },
  {
    "cpd-smiles": "COc1cc2ncnc(Oc3ccc(NC(=O)Nc4cccc(Br)c4)cc3)c2cc1OC",
    "pIC50": 7.80
  }
]

---

Reported pIC50, Vascular endothelial growth factor receptor 1 (Homo sapiens, UniProt P17948).
pIC50: −log10 of the molar value.
value-kind: pIC50

[
  {
    "cpd-smiles": "O=C(Nc1ccc(Nc2ncnc3sccc23)cc1)Nc1cccc(Br)c1",
    "readout-qualifier": "<",
    "measured-number": 5.00
  },
  {
    "cpd-smiles": "O=C(Nc1ccc(Nc2ncnc3sc4c(c23)CCCC4)cc1)Nc1cccc(Br)c1",
    "readout-qualifier": "=",
    "measured-number": 5.15
  }
]

---

# test-system: Vascular endothelial growth factor receptor 2 (Homo sapiens)
# Sequence (P35968 whole entry): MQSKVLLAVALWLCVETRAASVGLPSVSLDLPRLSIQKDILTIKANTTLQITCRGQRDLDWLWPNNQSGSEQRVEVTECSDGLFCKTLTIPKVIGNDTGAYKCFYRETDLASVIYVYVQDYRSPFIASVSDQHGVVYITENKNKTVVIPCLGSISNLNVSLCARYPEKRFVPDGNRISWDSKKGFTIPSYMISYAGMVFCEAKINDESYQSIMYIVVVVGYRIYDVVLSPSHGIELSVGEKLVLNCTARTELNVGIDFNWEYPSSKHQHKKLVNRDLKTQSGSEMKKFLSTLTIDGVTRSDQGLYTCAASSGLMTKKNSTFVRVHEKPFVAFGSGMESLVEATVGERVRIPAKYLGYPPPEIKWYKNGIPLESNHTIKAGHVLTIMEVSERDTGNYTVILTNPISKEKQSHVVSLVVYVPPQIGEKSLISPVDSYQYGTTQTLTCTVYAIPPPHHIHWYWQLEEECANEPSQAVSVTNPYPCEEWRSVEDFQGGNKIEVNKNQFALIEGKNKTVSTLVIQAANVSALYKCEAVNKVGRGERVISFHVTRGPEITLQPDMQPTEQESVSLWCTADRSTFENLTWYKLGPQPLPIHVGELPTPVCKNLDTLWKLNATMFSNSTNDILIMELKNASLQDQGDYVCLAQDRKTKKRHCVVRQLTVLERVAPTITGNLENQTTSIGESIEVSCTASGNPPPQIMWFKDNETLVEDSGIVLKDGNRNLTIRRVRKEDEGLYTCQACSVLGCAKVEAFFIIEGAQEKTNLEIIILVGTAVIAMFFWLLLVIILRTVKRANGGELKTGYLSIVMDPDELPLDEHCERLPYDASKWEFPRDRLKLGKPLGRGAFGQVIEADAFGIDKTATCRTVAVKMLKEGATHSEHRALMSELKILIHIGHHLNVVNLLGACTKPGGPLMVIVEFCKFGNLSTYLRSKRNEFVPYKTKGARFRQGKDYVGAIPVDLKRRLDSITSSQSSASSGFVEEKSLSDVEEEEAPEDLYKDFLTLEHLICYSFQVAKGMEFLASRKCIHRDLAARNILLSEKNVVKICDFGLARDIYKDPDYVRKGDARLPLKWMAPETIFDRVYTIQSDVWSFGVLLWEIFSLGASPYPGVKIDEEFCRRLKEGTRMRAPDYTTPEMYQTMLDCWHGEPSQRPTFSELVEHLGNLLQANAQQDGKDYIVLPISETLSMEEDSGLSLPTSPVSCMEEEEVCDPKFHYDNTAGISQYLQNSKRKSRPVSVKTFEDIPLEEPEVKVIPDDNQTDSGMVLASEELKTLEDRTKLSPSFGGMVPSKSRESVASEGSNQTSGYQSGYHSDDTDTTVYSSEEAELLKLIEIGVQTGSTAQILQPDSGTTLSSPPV
# assay-comment: Inhibition of human recombinant VEGFR-2 after 1 hr using [gamma-32P]ATP
// values below are reported IC50
value-kind: IC50 (nM)

[
  {
    "cpd-smiles": "Fc1ccc(Nc2ncnc3sc4c(c23)CCCC4)cc1Cl",
    "value-kind": "IC50",
    "unit-of-measurement": "nM",
    "readout-qualifier": ">",
    "measured-number": 10000
  },
  {
    "cpd-smiles": "CCOC(=O)Nc1ccc(Nc2ncnc3sc4c(c23)CCCC4)cc1C",
    "value-kind": "IC50",
    "unit-of-measurement": "nM",
    "readout-qualifier": ">",
    "measured-number": 10000
  },
  {
    "cpd-smiles": "O=C(Nc1ccc(Oc2ncnc3ccccc23)cc1)Nc1cccc(Br)c1",
    "value-kind": "IC50",
    "unit-of-measurement": "nM",
    "readout-qualifier": "=",
    "measured-number": 8
  },
  {
    "cpd-smiles": "COc1cc2ncnc(Nc3ccc(NC(=O)Nc4cccc(Br)c4)cc3)c2cc1OC",
    "value-kind": "IC50",
    "unit-of-measurement": "nM",
    "readout-qualifier": "=",
    "measured-number": 12
  },
  {
    "cpd-smiles": "O=C(Nc1ccc(Oc2ncnc3sccc23)cc1)Nc1cccc(Br)c1",
    "value-kind": "IC50",
    "unit-of-measurement": "nM",
    "readout-qualifier": "=",
    "measured-number": 18
  },
  {
    "cpd-smiles": "O=C(Nc1cccc(Br)c1)Nc1ccc(Oc2ncnc3sc4c(c23)CCCC4)cc1Cl",
    "value-kind": "IC50",
    "unit-of-measurement": "nM",
    "readout-qualifier": "=",
    "measured-number": 15
  },
  {
    "cpd-smiles": "O=C(Nc1ccc(Oc2ncnc3sc4c(c23)CCCC4)cc1)Nc1cccc(Br)c1",
    "value-kind": "IC50",
    "unit-of-measurement": "nM",
    "readout-qualifier": "=",
    "measured-number": 11
  },
  {
    "cpd-smiles": "Cc1cc(Oc2ncnc3sc4c(c23)CCCC4)ccc1NC(=O)Nc1cccc(Br)c1",
    "value-kind": "IC50",
    "unit-of-measurement": "nM",
    "readout-qualifier": "=",
    "measured-number": 34
  },
  {
    "cpd-smiles": "Fc1ccc(Oc2ncnc3sc4c(c23)CCCC4)cc1Cl",
    "value-kind": "IC50",
    "unit-of-measurement": "nM",
    "readout-qualifier": "=",
    "measured-number": 3500
  },
  {
    "cpd-smiles": "CCOC(=O)Nc1ccc(Oc2ncnc3ccccc23)cc1C",
    "value-kind": "IC50",
    "unit-of-measurement": "nM",
    "readout-qualifier": "=",
    "measured-number": 710
  },
  {
    "cpd-smiles": "O=C(Nc1ccc(Nc2ncnc3ccccc23)cc1)Nc1cccc(Br)c1",
    "value-kind": "IC50",
    "unit-of-measurement": "nM",
    "readout-qualifier": "=",
    "measured-number": 91
  },
  {
    "cpd-smiles": "O=C(Nc1ccc(Nc2ncnc3sc4c(c23)CCCC4)cc1)Nc1cccc(Br)c1",
    "value-kind": "IC50",
    "unit-of-measurement": "nM",
    "readout-qualifier": "=",
    "measured-number": 310
  }
]

---

pIC50: −log10 of the molar value.
pIC50, Proto-oncogene tyrosine-protein kinase Src (Homo sapiens, UniProt P12931), per-entry values.

[
  {
    "cpd-smiles": "O=C(Nc1ccc(Nc2ncnc3sc4c(c23)CCCC4)cc1)Nc1cccc(Br)c1",
    "readout-qualifier": "=",
    "pIC50": 5.12
  },
  {
    "cpd-smiles": "O=C(Nc1ccc(Oc2ncnc3sccc23)cc1)Nc1cccc(Br)c1",
    "readout-qualifier": "<",
    "pIC50": 5.00
  },
  {
    "cpd-smiles": "COc1cc2ncnc(Oc3ccc(NC(=O)Nc4cccc(Br)c4)cc3)c2cc1OC",
    "readout-qualifier": "=",
    "pIC50": 5.26
  },
  {
    "cpd-smiles": "O=C(Nc1ccc(Oc2ncnc3ccccc23)cc1)Nc1cccc(Br)c1",
    "readout-qualifier": "<",
    "pIC50": 5.00
  },
  {
    "cpd-smiles": "O=C(Nc1ccc(Nc2ncnc3ccccc23)cc1)Nc1cccc(Br)c1",
    "readout-qualifier": "<",
    "pIC50": 5.00
  }
]
